- System: Plasmodium berghei
- EXPERIMENT: Antiplasmodial activity against Plasmodium berghei infected in CD1 mouse assessed as survival time at 50 mg/kg, po administered for 4 days measured on day 4 relative to vehicle-treated control
- Format: functional
Criterion: Survival meeting or surpassing 10 days. Met: yes. Not met: no.

- MOLECULE: "CN(C)CCCOc1ccc(CNc2ccc3nc(N)nc(N)c3c2)cc1"
  ASSIGNED CLASS: "yes"
- MOLECULE: "COc1ccc(CN(Cc2ccc(OC(F)(F)F)cc2)c2ccc3nc(N)nc(N)c3c2)cc1"
  ASSIGNED CLASS: "yes"
- MOLECULE: "Nc1nc(N)c2cc(N(Cc3ccc(OC(F)(F)F)cc3)Cc3ccc(OC(F)(F)F)cc3)ccc2n1"
  ASSIGNED CLASS: "yes"
- MOLECULE: "COc1ccc(CNc2ccc3nc(N)nc(N)c3c2)cc1"
  ASSIGNED CLASS: "yes"
- MOLECULE: "Nc1nc(N)c2cc(NCc3ccc4c(c3)OCCO4)ccc2n1"
  ASSIGNED CLASS: "yes"
- MOLECULE: "CCc1nc(N)nc(N)c1-c1ccc(Cl)cc1"
  ASSIGNED CLASS: "yes"
- MOLECULE: "COc1ccc(CNc2ccc3nc(NC(C)=O)nc(NC(C)=O)c3c2)cc1"
  ASSIGNED CLASS: "no"
- MOLECULE: "Nc1nc(N)c2cc(NCc3ccc(OC(F)(F)F)cc3)ccc2n1"
  ASSIGNED CLASS: "yes"
- MOLECULE: "CCN(Cc1ccc(OC(F)(F)F)cc1)c1ccc2nc(N)nc(N)c2c1"
  ASSIGNED CLASS: "yes"
- MOLECULE: "CCN(CC)CCCC(C)Nc1ccnc2cc(Cl)ccc12 (stereo unspecified)"
  ASSIGNED CLASS: "yes"
- MOLECULE: "COc1ccc(CN(Cc2ccc(OC)cc2)c2ccc3nc(N)nc(N)c3c2)cc1"
  ASSIGNED CLASS: "no"

---

Listed compounds paired with reported Activity
- Tested on: Plasmodium berghei
- EXPERIMENT: Antiplasmodial activity against Plasmodium berghei infected in CD1 mouse assessed as reduction in parasitemia at 50 mg/kg, po administered for 4 days measured on day 4 relative to vehicle-treated control
- Type: functional
- Parameters: scale not given: the % may be the effect or the level left

- MOLECULE: "COc1ccc(CN(Cc2ccc(OC)cc2)c2ccc3nc(N)nc(N)c3c2)cc1"
  U: "%"
  Activity: 0
- MOLECULE: "COc1ccc(CNc2ccc3nc(N)nc(N)c3c2)cc1"
  U: "%"
  Activity: 98.5
- MOLECULE: "CCc1nc(N)nc(N)c1-c1ccc(Cl)cc1"
  U: "%"
  Activity: 100
- MOLECULE: "Nc1nc(N)c2cc(NCc3ccc(OC(F)(F)F)cc3)ccc2n1"
  U: "%"
  Activity: 99.9
- MOLECULE: "Nc1nc(N)c2cc(NCc3ccc4c(c3)OCCO4)ccc2n1"
  U: "%"
  Activity: 44.2
- MOLECULE: "CCN(Cc1ccc(OC(F)(F)F)cc1)c1ccc2nc(N)nc(N)c2c1"
  U: "%"
  Activity: 100

---

- EXPERIMENT: Antioxidant activity assessed as inhibition of ABTS free radical scavenging activity after 10 mins by spectrophotometry relative to control
- Format: physicochemical
Listed molecules paired with reported IC50
MEASURE NAME: IC50 (µM)

- MOLECULE: "O=C1O[C@H]([C@@H](O)CO)C(O)=C1O [ASCORBIC ACID]"
  U: "µM"
  MEASURED RESULT: 11.2
- MOLECULE: "CCN(Cc1ccc(OC(F)(F)F)cc1)c1ccc2nc(N)nc(N)c2c1"
  U: "µM"
  MEASURED RESULT: 7.36
- MOLECULE: "Cc1c(C)c2c(c(C)c1O)CCC(C)(C(=O)O)O2 (stereo not drawn) [TROLOX]"
  U: "µM"
  MEASURED RESULT: 10.9
